Assay: solvent given as SMILES
Conditions: in Cc1ccccc1
Endpoint Label: emission maximum
Record the result as number plus unit.

Some solved cases for reference:
# Smiles Notation, emission maximum
data = [
    ("COc1ccc2c3c(c4ccc(C(C)(C)C)cc4c2c1)=C(c1cc(OC)c(OC)c(OC)c1)C1=Nc2c(-c4cc(OC)c(OC)c(OC)c4)c4c5ccc(C(C)(C)C)cc5c5cc(OC)ccc5c4n2[B-](F)(F)[N+]=31", "810 nm"),
    ("CC1(C)c2ccccc2N(c2cccc(S(=O)(=O)c3cccc(N4c5ccccc5C(C)(C)c5ccccc54)c3)c2)c2ccccc21", "489 nm"),
    ("COc1cc(OC)c2c(c1)c1c(c3ccc(C(C)(C)C)cc32)=[N+]2C(=Nc3c(-c4cc(OC)c(OC)c(OC)c4)c4c5cc(OC)cc(OC)c5c5cc(C(C)(C)C)ccc5c4n3[B-]2(F)F)C=1c1cc(OC)c(OC)c(OC)c1", "809 nm"),
    ("CC1(C)c2ccccc2N(c2ccc3c(c2)C2(c4cc(N5c6ccccc6C(C)(C)c6ccccc65)ccc4-3)c3ccccc3S(=O)(=O)c3ccccc32)c2ccccc21", "437 nm"),
    ("COc1ccc2c3c(c4ccc(OC)cc4c2c1)=[N+]1C(=C(c2c(C)cc(C)cc2C)c2cc4c5ccc(OC)cc5c5cc(OC)ccc5c4n2[B-]1(F)F)C=3", "712 nm"),
]

Documented emission maximum of O=[N+]([O-])c1ccc(-n2c3ccccc3c3c2c2ccccc2n3-c2ccccc2)cc1 : 660 nm

---

Assay: solvent given as SMILES
Conditions: in C1COCCO1
Field 'label' (enum: 1 (yes) / 0 (no)). Set to 1 (yes) when emission maximum is strictly under 400 nm; else 0 (no).

# Compound, Group
rows = [
    ("c1ccc(-c2nc(-c3ccccc3)nc(-c3ccc(-n4c5ccccc5c5c6c(ccc54)C4(c5ccccc5-c5ccccc54)c4ccccc4-6)cc3)n2)cc1", "0 (no)"),
]

Take the compound COc1ccc(C(=O)/C=C2\C(=O)Nc3ccccc32)cc1 and say whether its emission maximum is less than 400 nm.
1 (yes)

State whether 400 nm exceeds emission maximum recorded for CCN(CC)c1ccc2cc(/C=C(\C#N)c3nc4ccccc4s3)c(=O)oc2c1 .
0 (no)

Lab note: emission maximum threshold 400 nm. Does this compound come in strictly under it? Cc1cc(C2(c3cc(C)c(O)c(Br)c3)OS(=O)(=O)c3ccccc32)cc(Br)c1O
0 (no)

State whether 400 nm exceeds emission maximum recorded for CN(C)c1ccc(/C=C/c2nc3c4ccccc4c4ccccc4c3[nH]2)cc1 .
0 (no)

Is the reported emission maximum for CN1C(=O)/C(=C/c2ccncc2)N=C1c1ccccc1 strictly below 400 nm?
0 (no)

Could you please tell me whether emission maximum recorded for OCC1O[C@@H](Cc2cc(O)cc(/C=C/c3ccc(O)c(O)c3)c2)[C@H](O)[C@@H](O)[C@@H]1O (some centres undefined) is less than 400 nm?
1 (yes)

---

Measured emission maximum of individual entries
Experiment: solvent given as SMILES
Conditions: in CC#N
Give the number; nm is assumed, so skip it.

Examples with answers:
# Compound, Endpoint Label, Observed
records = [
    ("O=C1c2ccccc2C(=O)C1C1C(=O)c2c3ccccc3cc3cc4ccccc4c1c23 (centres undefined)", "emission maximum", 591),
    ("O=Cc1cc(O)c(C=O)cc1O", "emission maximum", 474),
    ("Cc1ccc2c(c1)nc1c(=O)n(C)c(=O)nc-1n2C", "emission maximum", 532),
]

Noted for CN(C)c1ccc(C2=Cc3cccc[n+]3[B-](F)(F)O2)cc1 : its emission maximum reads 528
